Known Cell viability in 3#-GSC (%) of a selection of compounds
# System: GSC-3 (3#-GSC)
# Protocol Summary: MTS cell viability assay, glioblastoma stem cells GSC-3 (3#-GSC)
# Assay type: cell-based
# Test Settings: primary viability screening, 72 hours, MTS; test concentration not stated
Reply with just the number (in %).

CCCCCc1cc(OCc2cn(S(=O)(=O)c3ccc(C)cc3)nn2)c2c(c1)OC1(C)CCC3C1C2C3(C)C (stereo not drawn) | 50
CCCCCCCCc1cc(O)c2c(c1)OC1(C)CCC3C1C2C3(C)C (stereo not drawn) | 87

Continue with the next compound.
Ask: Consider the compound shown here: CCCCCc1cc(O)c2c(c1)OC1(C)CCC3C1C2C3(C)C (stereo not drawn) What is its recorded Cell viability in 3#-GSC (%)?
Result: 20

---

# System: HEK-293T
# Protocol Summary: MTS cell viability assay, HEK-293T (293T) normal cells
# Type: cell-based
# Test Settings: Homo sapiens, HEK-293T; Table 8, normal cells, preferred compounds; read-out: IC50 293T
Result Type: IC50

# example entries with known answers
CCCCCc1cc(OC(=O)CCN2CCOCC2)c2c(c1)OC1(C)CCC3C1C2C3(C)C (stereo not drawn) | > 40 µg/mL
CCCCCc1cc(OC(=O)CC)c2c(c1)OC1(C)CCC3C1C2C3(C)C (stereo not drawn) | > 40 µg/mL

Let us move to another entry and its IC50.
Ask: Return IC50 measured with HEK-293T given this molecule: CCCCCc1cc(OC(=O)C(C)CC)c2c(c1)OC1(C)CCC3C1C2C3(C)C (stereo not drawn)
Result: > 40 µg/mL

---

The compounds listed here are annotated with their Cell viability in U251 (%).
# Tested on: U251
# Protocol Summary: MTS cell viability assay, U251
# Assay type: cell-based
# Test Settings: human, 72 h
Entry rule: numbers only, all in %.

Check out these entries, answers already filled in.
CC12CCC3C1C(c1c(O)cc(-c4ccsc4)cc1O2)C3(C)C (stereo not shown) | 98
Cc1cc(O)c2c(c1)OC1(C)CCC3C1C2C3(C)C (stereo not shown) | 88

Next item in the queue.
Ask: For CC12CCC3C1C(c1c(O)cc(-c4ccc(F)cc4)cc1O2)C3(C)C (stereo not shown) , what is its reported Cell viability in U251 (%)?
Result: 76
